biological target: GSK3β (Homo sapiens); construct: gene GSK3B; assay: Z'-LYTE kinase assay, […] ATP, […] min preincubation (IC50 […] without preincubation); type: biochemical
Sequence (P49841 whole entry): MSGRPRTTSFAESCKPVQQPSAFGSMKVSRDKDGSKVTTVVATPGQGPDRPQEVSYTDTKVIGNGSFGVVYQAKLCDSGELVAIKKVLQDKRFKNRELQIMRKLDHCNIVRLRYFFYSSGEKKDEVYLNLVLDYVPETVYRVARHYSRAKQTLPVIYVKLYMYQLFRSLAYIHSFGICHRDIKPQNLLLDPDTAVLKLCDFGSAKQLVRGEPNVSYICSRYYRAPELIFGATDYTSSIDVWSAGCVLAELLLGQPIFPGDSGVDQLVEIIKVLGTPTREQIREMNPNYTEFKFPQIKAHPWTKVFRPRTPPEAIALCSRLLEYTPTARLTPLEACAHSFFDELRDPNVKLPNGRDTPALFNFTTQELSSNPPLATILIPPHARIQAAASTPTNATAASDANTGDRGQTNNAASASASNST
VALUE_KIND: IC50

> print(dat)
                              sample.smiles        assayed.system  value.kind  result
1  C=CC1=C(C(=O)O)N2C(=O)[C@@H](NC(=O)/C(=N\OCC(=O)O)c3csc(N)n3)[C@H]2SC1  GSK3β (Homo sapiens)        IC50  550 nM
